Test system: Fibroblast
experiment description: Multiplex assay against human fibroblast
Format: toxicity, cell-based
applied conditions: 12 h, 1 µM, compound concentration 1 uM, replicate 1
Param label: returns Yes when Population Mitotic Cells (%) < 40%, returns No otherwise, including exact equality.

Criterion: Population Mitotic Cells (%) strictly below 40%. Is it met by CCc1cccc(CC)c1NC(=O)c1nn(C)c2c1CCc1cnc(Nc3ccc(C(=O)NC4CCN(C)CC4)cc3OC(F)(F)F)nc1-2 ?
Yes

I'd appreciate it if you could check whether CN1C2CCC1CC(OC(c1ccc(F)cc1)c1ccc(F)cc1)C2.Cl (stereo not drawn) has Population Mitotic Cells (%) smaller than 40%.
No

Please state whether Population Mitotic Cells (%) is below 40% for Cc1ccc(C(=O)Nc2cccc(C(F)(F)F)c2)cc1Nc1nc(-c2cccnc2)nc2c1cnn2C
Yes

Regarding CCN1CCN(c2ccc(Nc3cc(N(C)C(=O)Nc4c(Cl)c(OC)cc(OC)c4Cl)ncn3)cc2)CC1 , kindly confirm whether its Population Mitotic Cells (%) is beneath 40%.
No

Determine whether this compound shows Population Mitotic Cells (%) lower than 40% (ties excluded): CCn1c(=O)c(-c2ccc(-c3cncs3)cc2Cl)cc2cnc(Nc3ccc(N4CCN(C)CC4)cc3)nc21
No

# check: Population Mitotic Cells (%) < 40% for CCOc1cc(C(=O)N2CCC(N3CCN(C)CC3)CC2)ccc1Nc1ncc2c(n1)N(C1CCCC1)c1ccccc1C(=O)N2C
No

Strictly below 40%: is that where Population Mitotic Cells (%) of Cn1nc(C(F)(F)F)cc1-c1cnc(N2CCc3cc(S(=O)(=O)Nc4c(F)cc(Cl)cc4F)cc(N4CCCC4=O)c32)nc1 sits?
Yes

Taken from ChEMBL document CHEMBL4689842.
